Parameter: minimum inhibitory concentrations (MICs). Scope: all listed entries.
Tested on: SAAM 27
assay_comment: Antibacterial test, MIC by CLSI broth dilution
Assay type: cell-based, Staphylococcus aureus
measurement_setup: SAAM 27, clinical strain resistant to methicillin; 18 to 24 h at 37°C
observed_property: minimum inhibitory concentrations (MICs) (µg/mL)

1. CCCCCNC[C@@H](O)c1cc(C(F)(F)F)nc2c(C(F)(F)F)cccc12 = 8
2. O[C@H](c1cc(C(F)(F)F)nc2c(C(F)(F)F)cccc12)[C@@H]1CCCCN1 (relative stereo) [MQ, reference compound] = 16
3. O[C@H](CNCc1ccccc1)c1cc(C(F)(F)F)nc2c(C(F)(F)F)cccc12 = 4
4. CCCCCNC[C@H](O)c1cc(C(F)(F)F)nc2c(C(F)(F)F)cccc12 = 8
5. O[C@@H](CNCc1ccccc1)c1cc(C(F)(F)F)nc2c(C(F)(F)F)cccc12 = 4
6. CCCCCCNC[C@H](O)c1cc(C(F)(F)F)nc2c(C(F)(F)F)cccc12 = 4
7. CCCCCCNC[C@@H](O)c1cc(C(F)(F)F)nc2c(C(F)(F)F)cccc12 = 2

###

Tested on: Plasmodium falciparum chloroquine resistant (W2)
assay_comment: Antimalarial test, tritiated hypoxanthine incorporation, chloroquine resistant clone W2
Assay type: cell-based
measurement_setup: W2, 45 h, read-out: 50% inhibitory concentration followed by uncertainty about the value expressed in percentage
Protocol: Screenings of the compound according to the present invention (1f, 1h, 1i) and their isomers (1a, 1c, 1d)on strains of Plasmodium falciparum sensitive (3D7) and chloroquine resistant (W2) were realized. The Clones of W2 and 3D7 were grown. […] The activity was calculated by using the Pk-Fit software on all the experimental points obtained for each molecule (except the highest concentration). […]
observed_property: IC50 (µM)

1) CCN(CC)CCCC(C)Nc1ccnc2cc(Cl)ccc12 (stereo not shown) [CQ, chloroquine, reference compound] = 0.572
